biological target: human GST-AMPK α1β2γ1 (Homo sapiens, UniProt O43741+Q13131); construct: triply transfected with full-length AMPK α1 or α2 (NH2-terminal GST fusion, pDEST27 vector); full-length AMPK α1 or α2 (NH2-terminal GST fusion, pDEST27 vector), β1 or β2 (COOH-terminal FLAG fusion, pcDNA3.1 vector); FLAG (C); made in house; host or cells: HEK293T/17 cells, transient triple transfection; assay: Radiolabel SAMS kinase assay, GST-AMPK from HEK293T/17 cells immobilised on glutathione-Sepharose; assay type: biochemical; details: 1 µM compound
Sequence (Q13131 whole entry, the tested form may be a part): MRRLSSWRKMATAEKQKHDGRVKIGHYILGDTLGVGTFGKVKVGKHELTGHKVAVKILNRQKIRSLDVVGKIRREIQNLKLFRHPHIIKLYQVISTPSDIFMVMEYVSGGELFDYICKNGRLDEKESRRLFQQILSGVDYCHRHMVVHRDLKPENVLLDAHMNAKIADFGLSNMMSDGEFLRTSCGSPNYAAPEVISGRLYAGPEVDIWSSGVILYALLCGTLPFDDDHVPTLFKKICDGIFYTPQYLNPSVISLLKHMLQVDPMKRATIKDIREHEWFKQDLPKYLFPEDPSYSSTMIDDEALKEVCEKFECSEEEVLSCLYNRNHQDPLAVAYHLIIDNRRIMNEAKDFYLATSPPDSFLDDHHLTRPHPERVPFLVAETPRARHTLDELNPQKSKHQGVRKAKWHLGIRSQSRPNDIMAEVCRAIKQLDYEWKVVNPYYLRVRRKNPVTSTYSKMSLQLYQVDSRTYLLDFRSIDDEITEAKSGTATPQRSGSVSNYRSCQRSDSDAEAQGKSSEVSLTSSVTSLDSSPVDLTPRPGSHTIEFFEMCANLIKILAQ
Sequence (O43741 whole entry, the tested form may be a part): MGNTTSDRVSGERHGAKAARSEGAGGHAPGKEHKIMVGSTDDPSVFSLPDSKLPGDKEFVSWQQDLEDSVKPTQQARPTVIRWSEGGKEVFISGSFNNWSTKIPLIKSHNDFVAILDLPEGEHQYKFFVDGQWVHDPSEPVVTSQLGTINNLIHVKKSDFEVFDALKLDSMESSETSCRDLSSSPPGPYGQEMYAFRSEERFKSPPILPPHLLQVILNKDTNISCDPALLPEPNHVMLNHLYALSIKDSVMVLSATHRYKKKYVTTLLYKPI
Sequence (P54619 whole entry partner, the tested form may be a part): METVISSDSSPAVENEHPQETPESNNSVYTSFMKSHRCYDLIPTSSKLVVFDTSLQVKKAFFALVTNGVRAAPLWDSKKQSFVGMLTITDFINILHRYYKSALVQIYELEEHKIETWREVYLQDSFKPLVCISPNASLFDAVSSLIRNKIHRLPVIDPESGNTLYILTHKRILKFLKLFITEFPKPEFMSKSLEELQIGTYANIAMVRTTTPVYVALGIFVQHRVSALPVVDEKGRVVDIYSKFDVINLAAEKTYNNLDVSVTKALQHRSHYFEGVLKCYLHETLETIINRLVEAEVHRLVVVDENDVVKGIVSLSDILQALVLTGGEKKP
Quick reference: fold AMPK activation relative to vehicle of the listed items.

The compound identified as CC(=O)NC1CC=C(c2ccc(-c3nc4nc(Oc5ccc(C)c(C(=O)O)c5)[nH]c4cc3Cl)cc2)CC1 (centres unmarked) [MSG011] registered its fold AMPK activation relative to vehicle at > 2.2 fold

The compound identified as Cc1ccc(Oc2nc3nc(-c4ccc(-c5ccccc5O)cc4)c(Cl)cc3[nH]2)cc1C(=O)O [SC4] registered its fold AMPK activation relative to vehicle at 1.3 fold

The compound identified as Cc1ccc(Oc2nc3nc(-c4ccc(C5=CCC(C(=O)O)CC5)cc4)c(Cl)cc3[nH]2)cc1C(=O)O (centres unmarked) [MSG010] registered its fold AMPK activation relative to vehicle at > 2.2 fold

The compound identified as COCCc1cccc(-c2nc3nc(Oc4ccc(C)c(C(=O)O)c4)[nH]c3cc2Cl)c1 [MSG008] registered its fold AMPK activation relative to vehicle at ≤ 1.3 fold

Now consider a different compound.
The compound identified as Cc1ccc(Oc2nc3nc(C#Cc4ccccc4O)c(Cl)cc3[nH]2)cc1C(=O)O [MSG009] registered its fold AMPK activation relative to vehicle at 1.5 fold

----------
molecular target: γ1AMPK complexes; test: Radiolabel kinase assay, immobilised GST-tagged γ1AMPK (stated across γ1 complexes); conditions: immobilised GST-γ1AMPK; read-out: EC50 values for γ1AMPK activation
measuredProperty: pEC50
// pEC50 here means minus log10 of the molar concentration (mol/L)

The compound identified as OCC1(c2ccc(-c3cc4nc(O[C@@H]5CO[C@H]6[C@@H]5OC[C@H]6O)[nH]c4cc3Cl)cc2)CC1 [PF-739, reference compound] registered its pEC50 at 5.70

----------
Quick reference: EC50 of the listed items.
target: human GST-AMPK α1β1γ1 (Homo sapiens, UniProt Q13131+Q9Y478); construct: triply transfected with full-length AMPK α1 or α2 (NH2-terminal GST fusion, pDEST27 vector); full-length AMPK α1 or α2 (NH2-terminal GST fusion, pDEST27 vector), β1 or β2 (COOH-terminal FLAG fusion, pcDNA3.1 vector); FLAG (C); assay: Radiolabel SAMS kinase assay, GST-AMPK from HEK293T/17 cells immobilised on glutathione-Sepharose; conditions: immobilised α1β1γ1, 0–30 µM activator
Sequence (Q9Y478 whole entry, one chain of several, the tested form may be a part): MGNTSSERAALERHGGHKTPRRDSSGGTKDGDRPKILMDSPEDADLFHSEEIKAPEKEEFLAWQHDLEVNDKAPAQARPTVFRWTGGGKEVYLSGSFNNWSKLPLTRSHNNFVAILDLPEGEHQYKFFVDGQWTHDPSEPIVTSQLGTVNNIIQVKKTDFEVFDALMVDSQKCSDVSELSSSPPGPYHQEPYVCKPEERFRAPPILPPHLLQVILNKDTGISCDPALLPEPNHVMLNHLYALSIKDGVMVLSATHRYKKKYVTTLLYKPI
Respond with the bare value in nM.

Example entries and their recorded answers appear below.
The compound identified as OCC1(c2ccc(-c3cc4nc(O[C@@H]5CO[C@H]6[C@@H]5OC[C@H]6O)[nH]c4cc3Cl)cc2)CC1 [PF-739, reference compound] registered its EC50 at 2010

The compound identified as CC(=O)NC1CC=C(c2ccc(-c3nc4nc(Oc5ccc(C)c(C(=O)O)c5)[nH]c4cc3Cl)cc2)CC1 (stereo not shown) registered its EC50 at 140

Continuing:
The compound identified as O[C@@H]1CO[C@H]2[C@@H]1OC[C@H]2Oc1nc2nc(-c3ccc(-c4ccccc4)cc3)c(Cl)cc2[nH]1 [MK-8722, reference compound] registered its EC50 at 1210

The compound identified as CN(C)C(=O)C1(O)CCC(Oc2nc3nc(-c4ccc(C5=CCC(C(=O)O)CC5)cc4)c(Cl)cc3[nH]2)CC1 (stereo not shown) registered its EC50 at 103
